UniProt P00491: recorded Kd for assorted compounds
Sequence (P00491 whole entry): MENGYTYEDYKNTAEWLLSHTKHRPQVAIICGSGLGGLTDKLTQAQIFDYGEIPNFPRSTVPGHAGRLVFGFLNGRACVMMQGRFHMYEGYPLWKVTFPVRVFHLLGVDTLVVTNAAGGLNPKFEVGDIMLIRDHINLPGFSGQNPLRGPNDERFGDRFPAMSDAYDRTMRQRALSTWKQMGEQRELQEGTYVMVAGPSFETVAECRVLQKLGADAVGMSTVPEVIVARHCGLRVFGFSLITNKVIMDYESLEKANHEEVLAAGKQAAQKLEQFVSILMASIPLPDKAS
Field format: number, assumed pM, no unit text.

Incoming: Recorded Kd of O=c1[nH]cnc2c(CNC(CO)CO)c[nH]c12 [Compound 10] , please.
Outgoing: 5.2

Incoming: Now this one: Nc1nc2c(CNC(CO)CO)c[nH]c2c(=O)[nH]1 [Compound 8]
Outgoing: 2.1
